System: Calu-3
Experiment: cell viability relative to DMSO; higher = less toxic
Conditions: 72 h; 1000 nM
recorded metric: cell viability

Some compounds with known cell viability results, for comparison:
| compound | reported |
| --- | --- |
| CC(C)(C)NC(=O)N[C@H](C(=O)N1C[C@H]2[C@@H]([C@H]1C(=O)NC(CC1CCC1)C(=O)C(N)=O)C2(C)C)C(C)(C)C (stereo partly drawn) [Boceprevir] | 100% |
| Oc1ccc([C@@H]2Oc3ccc(O)cc3[C@@H]3CCC[C@@H]32)cc1 | 98.3% |
| CN[C@H](CC(=O)O)C(=O)O | 105% |
| CC[C@H](CC#N)OC(=O)N[C@@H](C)c1cccc(NC(=O)Nc2ccc(-c3cnco3)c(OC)c2)c1 | 57.3% |
| Cc1ncc(CN2CC=C(c3ccccc3)CC2)c(N)n1 | 99.5% |

What cell viability appears in the records for this compound with Calu-3? CC(C)(C)NC(=O)N[C@H](C(=O)N1C[C@H]2[C@@H]([C@H]1C(=O)NC(CC1CCC1)C(=O)C(N)=O)C2(C)C)C(C)(C)C (stereo partly drawn) [boceprevir]
95.2%

What cell viability appears in the records for this compound with Calu-3? Cc1c(C)c2c(c(C)c1O)CCC(C)(C(=O)O)O2 (stereo not drawn)
106%

What cell viability appears in the records for this compound with Calu-3? O=C(NCCCCCCNC(=O)ON=C1CCCCC1)ON=C1CCCCC1
98.8%

Value source: the supplement of paper PMC13380429
